# ASSAY SUMMARY: binders of probe aFGF10 on microarray, primary screen, stem cell growth factor project, biochemical, small-molecule microarray, fluorescence 635/667 (AID 1071);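 also: score merges 667 nm spot intensity and signal to noise from triplicate slides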
# MEASUREMENT CONTEXT: higher = more signal
Is composite z-score at least 0.7? Then yes (1). If not, no (0).

{"columns": ["MOLECULE", "CLASS"],
 "data": [
  ["Cc1cc2c(c(=O)o1)[C@H](O)[C@H]1O[C@H]1C2=O", "no (0)"],
  ["C[C@@H]1C=CCC(=O)OC[C@H](C)C(=O)N2CCC[C@H]2C(=O)OC1", "no (0)"],
  ["C=CC[C@@H]1C=C[C@H](ON=Cc2ccc(C(=O)N3[C@H](c4ccc(C)cc4)[C@@H](C)CC[C@H]3C(=O)OC)cc2)[C@@H](CO)O1", "no (0)"],
  ["CC(CCC(=O)OC[C@H]1O[C@H](C#Cc2ccccc2)C=C[C@@H]1Oc1ccc(C)cc1)=NO[C@@H](C)c1cn([C@H](CO)Cc2ccccc2)nn1", "no (0)"],
  ["C=C(/C(=C/C[C@@H](OC(=O)c1ccncc1)c1ccc(OCCO)cc1)c1cnc2ccccc2c1)C(C)C", "no (0)"],
  ["[N-]=[N+]=NCc1ccccc1[C@@H]1OC(c2ccc(OCCCO)cc2)=N[C@]1(Cc1ccccc1)C(=O)N1CCOCC1", "yes (1)"],
  ["C[C@@H](c1ccccc1)N1C(=O)[C@H]2[C@H]3[C@H](O)C=CC(=O)[C@@H]3CC[C@H]2C1=O", "no (0)"],
  ["CO[C@@H]1COC(=O)CC=C[C@@H](C)[C@@H]2C=C[C@H](O)[C@@H](COC(=O)CCC[C@H]1C)O2", "no (0)"],
  ["COC(=O)[C@@H]1N=C(c2ccc(OCCCO)cc2)O[C@@H]1c1ccccc1N=[N+]=[N-]", "no (0)"],
  ["CO[C@H]1COC(=O)[C@@H]2CCCN2C(=O)CC=C[C@@H](C)[C@H](OC)COC(=O)CC=C[C@@H]1C", "no (0)"],
  ["N#Cc1ccc(NN2C(C(O)c3cc(C(F)(F)F)cc(C(F)(F)F)c3)C=CC3C(=O)N(c4ccccc4)C(=O)C32)cc1 (stereo unspecified)", "no (0)"],
  ["COc1ccc(OC[C@H]2Cc3c(-c4ccccc4)nc4c(c3CO2)CN(CCOc2ccccc2)CC4)cc1", "yes (1)"],
  ["COc1cccc([C@H]2Oc3ccc(OC)cc3C(=NO[C@H](C)c3cn([C@@H]4COC[C@H]4O)nn3)[C@@H]2O)c1", "no (0)"],
  ["CC(C)OC(=O)C=C1C[C@@H](c2ccc(C#N)cc2)O[C@@H](c2ccc(C#N)cc2)O1", "yes (1)"],
  ["COc1ccc(CCNC(=O)[C@@H]2c3ccccc3C(=O)N(c3ccc(C)cn3)[C@H]2c2ccc(CO)cc2)cc1", "no (0)"],
  ["COc1ccc(O[C@H]2C=C[C@@H](c3ccccc3)O[C@@H]2COC(=O)CCC(C)=NOCC[C@@H]2C=C[C@H](OC(C)=O)[C@@H](COC(C)=O)O2)cc1", "no (0)"],
  ["CN(C)CCCNC(=O)[C@@H]1c2ccccc2C(=O)N(Cc2ccccc2)[C@H]1c1ccc(CO)cc1", "no (0)"],
  ["CC(C)=NOCc1ccc(-c2cc(-c3ccccc3)no2)cc1", "no (0)"],
  ["CC(=O)OC[C@H]1O[C@H](C#CCCCc2ccccc2)C=C[C@@H]1OC(C)=O", "yes (1)"],
  ["CN1C(=O)C2C=CC(C(O)C(c3ccccc3)c3ccccc3)N(NC(=O)OC(C)(C)C)C2C1=O (stereo unspecified)", "yes (1)"],
  ["O=C1C[C@@H](O)[C@@H](O)[C@@H]2[C@@H]3C(=O)N(Cc4ccc5c(c4)OCO5)C(=O)[C@@H]3CC[C@@H]12", "yes (1)"]
]}
